# Test system: CAKI-1
# Experiment Summary: NCI tumour cell line growth inhibition, 48 h
Calls of active or inactive are those of the source. Rule as the data show it: active = GI50 up to about 1.1 µM and inactive = higher.
Readout Kind: GI50

These recorded examples may help you get a feel for the data.
COC(=O)C1=C(c2ccc(OC)c(OC)c2)OC(c2cc(OC)c(OC)c(OC)c2)C1 (centres undefined) :: 60.3 µM (inactive)
O=C1c2ccccc2-c2nc(-c3ccccc3)cc3c2c1nc1ccccc13 :: 27.2 µM (inactive)

Task: What value of measured GI50 is listed for CC1NOC(=O)C1/N=N/c1ccccc1Cl (centres undefined) ?
Result: 25.5 µM (inactive)

Task: What value of measured GI50 is listed for O=C(c1ccco1)C1CC(c2ccc3ccccc3c2O)=NN1 (centres undefined) ?
Result: > 100 µM (inactive)

###

# Test system: CAKI-1
# Experiment Summary: NCI tumour cell line growth inhibition, 48 h
The source made the active and inactive calls. Cut-off read from the data, not from the text of the source: active = GI50 up to about 1.1 µM and inactive = higher.
Listed next: entries and their corresponding GI50.

These recorded examples may help you get a feel for the data.
CC1C=C(OC(=O)c2ccccc2)C(=O)C(n2cc(F)c(=O)n(C(=O)c3ccccc3)c2=O)O1 (stereo unspecified) :: 32.4 µM (inactive)
C=CCOC1=C(OC(C)=O)C(C2COC(C)(C)O2)OC1=O (stereo unspecified) :: 1.95 µM (inactive)
Cc1occc1/C(S)=N\c1ccc(Cl)c(COC(C)(C)C)c1 :: 17.8 µM (inactive)
CCCCCCCCCCOC(=O)c1cc[n+](C)cc1 :: 16.6 µM (inactive)

Task: What value of measured GI50 is listed for CCOC(=O)c1c(-c2ccc(Br)cc2)ccn1C ?
Result: > 10 µM (inactive)

###

Listed next: entries and their corresponding GI50.
# System: Malme-3M
# Experiment Summary: NCI tumour cell line growth inhibition, 48 h
Active and inactive are the calls of the source. Rule as the data show it: active = GI50 up to about 1.1 µM and inactive = higher.

These recorded examples may help you get a feel for the data.
O=C1c2ccccc2-c2nc(-c3ccccc3)cc3c2c1nc1ccccc13 :: 4.7 µM (inactive)
Cc1ccc(-n2cc(-c3ccc(Cl)cc3)c3c(=N)n(N)cnc32)cc1 :: 13.2 µM (inactive)
CCOC(=O)c1c(-c2ccc(Br)cc2)ccn1C :: > 10 µM (inactive)
COc1cc2c(c(O)c1OC)-c1c(cc(OC)c(OC)c1OC)CC(C)C(C)C2 (stereo unspecified) :: 68.7 µM (inactive)
CN(C)C(=C1C(Br)=C(Br)C(Br)=C1Br)N(C)C :: > 100 µM (inactive)
COC(=O)[C@]12CC3C=CC1N(C3)C(CBr)c1c2n(S(=O)(=O)c2ccccc2)c2ccccc12 (stereo partly specified) :: 72.9 µM (inactive)

// moving on: another record for GI50
Task: What value of measured GI50 is listed for c1ccc2c(c1)ncn2CCn1ccnc1 ?
Result: > 100 µM (inactive)

###

Listed next: entries and their corresponding GI50.
# System: SK-OV-3
# Experiment Summary: NCI tumour cell line growth inhibition, 48 h
Active and inactive are the calls of the source. Cut-off read from the data, not from the text of the source: active = GI50 up to about 1.1 µM and inactive = higher.

CC(C)CNC(=O)Cn1c2c(c3ccccc31)CCCC2 :: 23.7 µM (inactive)
OCCc1ccsc1-c1sc(-c2cc(CCO)c(-c3sc(-c4cc(CCO)c(-c5sccc5CCO)s4)cc3CCO)s2)cc1CCO :: 1.64 µM (inactive)
O=[N+]([O-])C(/C=C(\Cl)[N+](=O)[O-])=C(N1CCOCC1)N1CCOCC1 :: > 100 µM (inactive)
CC1NOC(=O)C1/N=N/c1ccccc1Cl (stereo not given) :: 28.3 µM (inactive)

Task: What value of measured GI50 is listed for CCCCCCCCCCCc1noc2c1C(=O)C(O)CC2 (stereo not given) ?
Result: 25.7 µM (inactive)
